# protocol: Pharmacokinetic (PK) studies in Balb/C nude mice via intraperitoneal injection
# recorded conditions: male, Balb/c nude, mouse, plasma, ip, 15 mg/kg
quantity measured: AUC

{"columns": ["compound", "measurement"],
 "data": [
  ["COC(=O)c1ccc([C@H]2c3[nH]c4ccccc4c3C[C@H](C(=O)OC)N2C(=O)CCl)cc1 [Example K601, RSL3, reference compound]", "1.28 ng·h/mL"]
]}

---

# protocol: PK profile, IV plasma concentration and PK parameters
# Assay type: in vivo
# recorded conditions: Balb/C nude, mouse, iv, 5 mg/kg, 30% Kolliphor EL in water (Table 10b), read-out: Vss

{"columns": ["chemical smiles", "Vd / L/kg"],
 "data": [
  ["C#CC(=O)N1[C@@H](CCCC)Cc2c([nH]c3c(F)cc(F)cc23)[C@@H]1c1ccc(F)cc1", 0.48]
]}

---

# protocol: Pharmacokinetic (PK) studies via intravenous infusion, Sprague-Dawley rat
# Type: in vivo
# recorded conditions: male, plasma, 1 hour-IV infusion 2 mg/kg, 1.0833 hr, one rat
# Method: Test compound dosing solutions were administered via intravenous infusion to Sprague-Dawley male rat. Into 50 μL of test compound plasma samples were added 5 μL DMSO then 200 μL of 25 ng/mL internal standard (ITSD) (Verapamil) in MeOH/acetonitrile (1:1, v/v). […] The limit of quantification (LOQ) was 1 ng/mL. The lower limit of quantification was 1-10 ng. […] The PK profiles of compound 24 and compound 28 are shown below. […] The limit of quantification was 1 ng/mL.
quantity measured: concentration at 1.0833 hr (ng/mL)

{"columns": ["chemical smiles", "measurement"],
 "data": [
  ["COC(=O)[C@H]1Cc2c([nH]c3ccccc23)[C@H](c2ccc(S(=O)(=O)N[C@]34C[C@H]5C[C@H](C[C@H](C5)C3)C4)cc2)N1C(=O)CCl", 14.1]
]}

---

# protocol: in vivo
# recorded conditions: male, Balb/c nude, mouse, ip, 15 mg/kg

{"columns": ["chemical smiles", "measurement units", "Cmax"],
 "data": [
  ["COC(=O)[C@H]1Cc2c([nH]c3ccccc23)[C@H](c2ccc(C(=O)OC(C)(C)C)cc2)N1C(=O)CCl", "ng/mL", 126]
]}

---

# protocol: PK profile, IV plasma concentration and PK parameters
# Assay type: in vivo
# recorded conditions: Balb/C nude, mouse, iv, 5 mg/kg, 30% Kolliphor EL in water (Table 10b)

{"columns": ["molecule", "C0 (ng/mL)"],
 "data": [
  ["C#CC(=O)N1[C@@H](CCCC)Cc2c([nH]c3c(F)cc(F)cc23)[C@@H]1c1ccc(F)cc1 [Compound 156]", 38200]
]}

---

# protocol: PK profile, IV plasma concentration and PK parameters
# Assay type: in vivo
# recorded conditions: Balb/C nude, mouse, 5 mg/kg IV, BID q12, post 2nd dose, 5 min, 30% Kolliphor EL in water

{"columns": ["chemical smiles", "concentration at 5 min / ng/mL"],
 "data": [
  ["C#CC(=O)N1[C@@H](CCCC)Cc2c([nH]c3c(F)cc(F)cc23)[C@@H]1c1ccc(F)cc1", 18500]
]}

---

# protocol: Pharmacokinetic (PK) studies in Balb/C nude mice via intraperitoneal injection
# recorded conditions: male, Balb/c nude, mouse, plasma, ip, 15 mg/kg, Calculated Concentration, IP 15 mg/kg, Balb/C nude mice, 1 h, individual mice

{"columns": ["chemical smiles", "concentration at 1 h"],
 "data": [
  ["CN(C)C(=O)[C@H]1Cc2c([nH]c3ccccc23)[C@H](c2ccc([Si](C)(C)C)cc2)N1C(=O)CCl", "38.7 ng/mL"]
]}

---

# protocol: Whole blood stability, human
# Type: in vitro ADME
# recorded conditions: 60 min
Rule: Whole Blood Stability % Remaining at 37° C. Human below 40% gives YES. Equal to or above 40% gives NO.

{"columns": ["compound", "group"],
 "data": [
  ["COC(=O)c1ccc([C@@H]2c3[nH]c4ccc(F)cc4c3C[C@H](C(=O)OC)N2C(=O)CCl)cc1", "YES"],
  ["COC(=O)[C@H]1Cc2c([nH]c3ccccc23)[C@H](c2ccc(C(=O)N3CCC(O)CC3)cc2)N1C(=O)CCl", "YES"],
  ["COC(=O)[C@H]1Cc2c([nH]c3ccccc23)[C@H](c2ccc(C(=O)OCC3CC3)cc2)N1C(=O)CCl", "NO"],
  ["CN(C)C(=O)[C@H]1Cc2c([nH]c3ccccc23)[C@H](C2CCN(C(=O)OC(C)(C)C)CC2)N1C(=O)CCl", "YES"],
  ["COC(=O)c1ccc([C@H]2c3[nH]c4ccc(Cl)cc4c3C[C@H](C(=O)OC)N2C(=O)CCl)cc1", "NO"],
  ["COC(=O)[C@H]1Cc2c([nH]c3ccccc23)[C@H](c2ccc(C(=O)NCCN3CCOCC3)cc2)N1C(=O)CCl", "NO"],
  ["COCCN(C(=O)c1ccc([C@H]2c3[nH]c4ccccc4c3C[C@H](C(=O)N(C)C)N2C(=O)CCl)cc1)C(C)(C)C", "NO"],
  ["CN(C)C(=O)[C@H]1Cc2c([nH]c3ccccc23)[C@H](c2ccc(S(=O)(=O)C3CC3)cc2)N1C(=O)CCl", "YES"],
  ["CC(=O)Nc1ccc([C@@H]2c3[nH]c4ccccc4c3C[C@H](C(=O)N(C)C)N2C(=O)CCl)cc1 [Compound 71a]", "YES"],
  ["C[C@H]1Cc2c([nH]c3ccccc23)[C@H](c2ccc(C3CCCC3)cc2)N1C(=O)CCl", "NO"],
  ["COC(=O)[C@H]1Cc2c([nH]c3ccccc23)[C@H](c2ccc(NC(C)=O)cc2)N1C(=O)CCl", "NO"],
  ["C[C@H]1Cc2c([nH]c3ccccc23)[C@H](c2ccc(N3CCOCC3)cc2)N1C(=O)CCl", "NO"],
  ["CN(C)C(=O)c1ccc([C@H]2c3[nH]c4ccccc4c3C[C@H](C(=O)N(C)C)N2C(=O)CCl)cc1", "YES"],
  ["COC(=O)c1ccc([C@H]2c3[nH]c4ccccc4c3C[C@H](C)N2C(=O)CCl)cc1", "YES"]
]}

---

# Test system: SJSA-1
# protocol: Cell proliferation (Alamar Blue) assay, SJSA-1 osteosarcoma, with/without ferrostatin
# Assay type: cell-based, human
# recorded conditions: Homo sapiens, SJSA-1, Cell Line SJSA-1; read-out: IC50
pIC50: −log10 of the molar value.

{"columns": ["compound", "reported relation", "pIC50"],
 "data": [
  ["C[C@H]1Cc2c([nH]c3ccccc23)[C@H](c2ccc(S(=O)(=O)NC3CCN(C(=O)OC(C)(C)C)CC3)cc2)N1C(=O)CCl [Compound 293]", "=", 7.52],
  ["CC1CN(c2ccc([C@@H]3c4[nH]c5ccccc5c4C[C@H](C)N3C(=O)CCl)cc2)CCO1 (some centres unmarked) [Example 127]", "<", 5.00],
  ["COC[C@H]1Cc2c([nH]c3ccccc23)[C@H](c2ccc(C(=O)NC3CC3)cc2F)N1C(=O)CCl [Compound 166]", "=", 8.00],
  ["CC#CC(=O)N1[C@@H](CCCC)Cc2c([nH]c3ccccc23)[C@@H]1c1ccc(F)cc1 [Compound 180]", "<", 4.52],
  ["C#CCOc1ccc([C@H]2c3[nH]c4ccccc4c3C[C@H](C(=O)OC)N2C(=O)CCl)cc1 [Compound 147]", "=", 6.80]
]}

---

# protocol: Pharmacokinetic (PK) studies via intravenous infusion, Sprague-Dawley rat
# Assay type: in vivo
# recorded conditions: male, plasma, 1 hour-IV infusion 4 mg/kg, 1.0833 hr, one rat
quantity measured: concentration at 1.0833 hr (ng/mL)

{"columns": ["chemical smiles", "measurement"],
 "data": [
  ["COC(=O)[C@H]1Cc2c([nH]c3ccccc23)[C@H](c2ccc(S(=O)(=O)N[C@]34C[C@H]5C[C@H](C[C@H](C5)C3)C4)cc2)N1C(=O)CCl", 36.4]
]}

---

# protocol: Whole blood stability, human
# Type: in vitro ADME
# recorded conditions: 30 min
Threshold check on Whole Blood Stability % Remaining at 37° C. Human: at or above 70% gives Satisfied, strictly below gives Not satisfied.

{"columns": ["compound", "group"],
 "data": [
  ["COC(=O)[C@H]1Cc2c([nH]c3ccccc23)[C@H](c2ccc(C(=O)OC(C)(C)C)cc2)N1C(=O)C(C)Cl (some centres unmarked) [Compound 33]", "Satisfied"],
  ["C[C@H]1Cc2c([nH]c3ccccc23)[C@H](c2ccc(NCC3CC3)cc2)N1C(=O)CCl [Compound 116]", "Satisfied"],
  ["CN(C)C(=O)c1ccc([C@H]2c3[nH]c4ccccc4c3C[C@H](C(=O)N(C)C)N2C(=O)CCl)cc1 [Compound 38]", "Not satisfied"],
  ["CN(C)C(=O)[C@H]1Cc2c([nH]c3ccccc23)[C@H](c2ccc(C(=O)NC[Si](C)(C)C)cc2)N1C(=O)CCl [Compound 66]", "Satisfied"],
  ["C[C@H]1Cc2c([nH]c3ccccc23)[C@H](c2ccc(C3CCCC3)cc2)N1C(=O)CCl [Compound 109]", "Satisfied"],
  ["CNC(=O)c1ccc([C@H]2c3[nH]c4ccccc4c3C[C@H](C(=O)OC)N2C(=O)CCl)cc1 [Compound 7]", "Not satisfied"],
  ["CN(C)C(=O)[C@H]1Cc2c([nH]c3ccccc23)[C@H](C2CCN(C(=O)OC(C)(C)C)CC2)N1C(=O)CCl [Compound 42]", "Not satisfied"],
  ["C[C@H]1Cc2c([nH]c3ccccc23)[C@H](c2ccc(C3CCOCC3)cc2)N1C(=O)CCl [Compound 112]", "Not satisfied"],
  ["COC(=O)[C@H]1Cc2c([nH]c3ccccc23)[C@H](c2ccc(C(=O)N3CCNCC3)cc2)N1C(=O)CCl [Compound 31]", "Not satisfied"],
  ["COC(=O)[C@H]1Cc2c([nH]c3ccccc23)[C@H](c2ccc(C(=O)N[C@]34CC5C[C@H](C[C@H](C5)C3)C4)cc2)N1C(=O)CCl [Compound 28]", "Satisfied"],
  ["CC(C)(C)OC(=O)c1ccc([C@@H]2c3[nH]c4ccccc4c3C[C@H](CO)N2C(=O)CCl)cc1 [Example 64a]", "Not satisfied"],
  ["CN(C)C(=O)[C@H]1Cc2c([nH]c3ccc(Br)cc23)[C@H](c2ccc(C(=O)OC(C)(C)C)cc2)N1C(=O)CCl [Compound 61]", "Not satisfied"],
  ["COC(=O)c1ccc([C@H]2c3[nH]c4ccc(F)cc4c3C[C@H](C(=O)OC)N2C(=O)CCl)cc1 [Compound 91]", "Not satisfied"]
]}
